Tested on: NOMO1
Test: cell viability relative to DMSO control; higher = less cytotoxic
Settings: RPMI 5 mM glucose + 10% FBS; 48 h; 15.4 µM
TEST_READOUT: cell viability (%)

| COMPOUND | TEST_READOUT | UNITS_OF_MEASURE | OBSERVED_RESULT |
| --- | --- | --- | --- |
| OC(=O)C(CC/1=C/C(=O)NC2=CC=CC=C12)NC(=O)C3=CC=C(Cl)C=C3 (centres undefined) | cell viability | % | 135 |
| CN(C)CCN(C)C(=O)c1ccc(NC(=O)Nc2ccc(-c3nc(N4CCOCC4)c4ccn(CC(F)(F)F)c4n3)cc2)cc1 | cell viability | % | 78.7 |
| CCN(C(=O)C/1=C(O)/C2=C(C=CC=C2Cl)N(C)C1=O)C3=CC=CC=C3 | cell viability | % | 2.47 |
| COC[C@H](c1ccc(C(F)(F)F)cc1)N1CCN(C2(C)CCN(C(=O)c3c(C)ncnc3C)CC2)C[C@H]1C.O=C(O)/C=C\C(=O)O | cell viability | % | 56.3 |
| NCCCCNCCCN | cell viability | % | 103 |
| Nc1cc(C(F)(F)F)c(-c2cc(N3CCOCC3)nc(N3CCOCC3)n2)cn1 | cell viability | % | 6.77 |
| CN1c2ccccc2C(=O)N2CCc3c([nH]c4ccccc34)C21 (centres undefined) | cell viability | % | 107 |
| CCC(=O)N[C@H]1CC[C@H](C(=O)N(C)c2ccc(-c3nc4ccccc4o3)cc2)C1 | cell viability | % | 88.6 |
| O=C1Nc2ccc(I)cc2/C1=C/c1cc(Br)c(O)c(Br)c1 | cell viability | % | 88.6 |

* * *

Test system: NOMO1
Experiment: cell viability relative to DMSO control; higher = less cytotoxic
Settings: HPLM + 10% dialyzed FBS; 48 h; 15.4 µM

| MOLECULE | STUDY_SYSTEM | cell viability (%) |
| --- | --- | --- |
| CC1(C)CNc2cc(NC(=O)c3cccnc3NCc3ccncc3)ccc21 | NOMO1 | 94.6 |
| COc1ccc([C@@H]2CC(=O)c3c(O)cc(O[C@@H]4O[C@H](CO[C@@H]5O[C@@H](C)[C@H](O)[C@@H](O)[C@H]5O)[C@@H](O)[C@H](O)[C@H]4O)cc3O2)cc1O | NOMO1 | 109 |
| CN(C)CCOc1ccc(-c2nc(-c3ccncc3)c(-c3ccc4c(c3)CC/C4=N\O)[nH]2)cc1 | NOMO1 | 95.2 |
| NC(=O)C1CCCc2c1[nH]c1ccc(Cl)cc21 (stereo not given) | NOMO1 | 24.2 |
| CCC\C1=C\C(=O)NC(=S)N1 | NOMO1 | 35 |
| c1ccc(CNc2nc(N3CCOc4ccccc43)nc3c2CCCC3)cc1 | NOMO1 | 100 |
| CC(/C=C/C(=O)NO)=C\[C@@H](C)C(=O)c1ccc(N(C)C)cc1 | NOMO1 | 4.16 |
| CN1CCC[C@@H]1CCO[C@](C)(c1ccccc1)c1ccc(Cl)cc1 | NOMO1 | 112 |
| C[C@]12CC[C@H]3[C@@H](CCC/4=C/C(=O)CC[C@]34C)[C@@H]1CC[C@@H]2O | NOMO1 | 127 |
| ClC1=CC\2=C(OC3=C(C=CC=C3)\N=C2N4CCNCC4)C=C1 | NOMO1 | 83.3 |
